test system: HCC-1937 line (primary ductam breast carcinoma cell line); assay: Cell proliferation (ATPLite) on HCC-1937 line; format: cell-based; conditions: Homo sapiens, HCC1937, 50% inhibition of cell proliferation, read 48 hours after treatment

- compound: "COC(=O)C1=C[C@H](c2ccsc2)C2=C(C[C@@H](C)[C@]3(Oc4c(Cl)c(OC)cc(OC)c4C3=O)C2=O)N1"
  IC50: "> 10 µM"
- compound: "COc1cc(OC)c2c(c1Cl)O[C@]1(C2=O)C(=O)c2c(nn(C)c2-c2ccccc2Cl)C[C@H]1C"
  IC50: "> 10 µM"
- compound: "CCc1ccc2c(n1)C[C@@H](C)[C@]1(Oc3c(Cl)c(OC)cc(OC)c3C1=O)C2O (some centres unmarked)"
  IC50: "> 10 µM"
- compound: "COc1cc(OC)c2c(c1Cl)O[C@]1(C2=O)C(O)c2ccc(C)nc2C[C@H]1C (some centres unmarked)"
  IC50: "> 10 µM"
- compound: "COC(=O)c1cc(-c2ccsc2)c2c(n1)C[C@@H](C)[C@]1(Oc3c(Cl)c(OC)cc(OC)c3C1=O)C2O (some centres unmarked)"
  IC50: "> 10 µM"
- compound: "COC(=O)c1cc(-c2ccccc2)c2c(n1)C[C@@H](C)[C@]1(Oc3c(Cl)c(OC)cc(OC)c3C1=O)C2=O"
  IC50: "> 10 µM"
- compound: "COc1cc(OC)c2c(c1Cl)O[C@]1(C2=O)C(O)c2c(-c3ccccc3)cc(C(=O)OC(C)C)nc2C[C@H]1C (some centres unmarked)"
  IC50: "> 10 µM"
- compound: "COC(=O)c1cc(-c2ccc(F)cc2)c2c(n1)C[C@@H](C)[C@]1(Oc3c(Cl)c(OC)cc(OC)c3C1=O)C2O (some centres unmarked)"
  IC50: "> 10 µM"
- compound: "COC(=O)c1cc(-c2ccccc2)c2c(n1)C[C@@H](C)[C@]1(Oc3c(Cl)c(OC)cc(OC)c3C1=O)[C@H]2O"
  IC50: "> 10 µM"
- compound: "COC(=O)C1=C[C@H](c2ccccc2)C2=C(C[C@@H](C)[C@]3(Oc4c(Cl)c(OC)cc(OC)c4C3=O)C2=O)N1"
  IC50: "> 10 µM"
- compound: "COC(=O)c1cc(-c2ccc(F)cc2)c2c(n1)C[C@@H](C)[C@]1(Oc3c(Cl)c(OC)cc(OC)c3C1=O)C2=O"
  IC50: "> 10 µM"

###

As shown below, each of these compounds has a reported log10(IC50) value.
System: A549 (lung cancer cell line)
Experiment: Cell proliferation (ATPLite) on A549 line
Type: cell-based
Conditions: 50% inhibition of cell proliferation, read 72 hours after addition
Experimental: The lines N1E115 (ATCC, CRL2263), MDA-MB-231 (ATCC, HTB26) and HSC-1 (Health Science Research Resources Bank, JCRB1015) were cultured in DMEM medium (Dulbecco's Modified Eagle Medium) supplemented with 2 mM of L-Glutamine (Sigma, G7513) and 10% foetal calf serum (Hyclone, SH30109.03) or 20% for the HSC-1 cells. […]
measurement.label: log10(IC50) (log10 of the value in µM)

- compound: "COc1cc(OC)c2c(c1Cl)O[C@]1(C2=O)C2=C(C[C@](C)(c3ccccc3)O2)C(=O)C[C@H]1C"
  system.under.test: "A549 (lung cancer cell line)"
  log10(IC50): -0.02
- compound: "COc1cc(OC)c2c(c1Cl)O[C@@]1(C=C([S+]([O-])c3ccccc3)C(=O)C[C@H]1C)C2=O (stereo partly drawn)"
  system.under.test: "A549 (lung cancer cell line)"
  log10(IC50): -0.60
- compound: "COc1cc(OC)c2c(c1Cl)O[C@]1(C2=O)C2=C(C[C@H](c3ccc(F)cc3)O2)C(=O)C[C@H]1C"
  system.under.test: "A549 (lung cancer cell line)"
  log10(IC50): -1.14
- compound: "COc1cc(OC)c2c(c1Cl)O[C@]1(C2=O)C(N(C)CCN(C)c2ccccn2)=CC(=O)C[C@H]1C"
  system.under.test: "A549 (lung cancer cell line)"
  log10(IC50): 0.96
- compound: "COc1cc(OC)c2c(c1Cl)O[C@]1(C2=O)C2=C(C[C@H](c3ccccc3)O2)C(=O)C[C@H]1C"
  system.under.test: "A549 (lung cancer cell line)"
  log10(IC50): -0.60
- compound: "COc1cc(OC)c2c(c1Cl)O[C@]1(C2=O)C2=C(C[C@@H](c3ccccc3)O2)/C(=N/O)C[C@H]1C"
  system.under.test: "A549 (lung cancer cell line)"
  log10(IC50): -0.44
- compound: "COc1cc(OC)c2c(c1Cl)O[C@]1(C2=O)C2=C(C[C@](CCCCO)(c3ccccc3)O2)C(=O)C[C@H]1C"
  system.under.test: "A549 (lung cancer cell line)"
  log10(IC50): -0.36
- compound: "COc1cc(OC)c2c(c1Cl)O[C@]1(C2=O)C(S(=O)(=O)Cc2ccccc2)=CC(=O)C[C@H]1C"
  system.under.test: "A549 (lung cancer cell line)"
  log10(IC50): 0.18
- compound: "COc1cc(OC)c2c(c1Cl)O[C@]1(C2=O)C2=C(C[C@@](CCO)(c3ccccc3)O2)C(=O)C[C@H]1C"
  system.under.test: "A549 (lung cancer cell line)"
  log10(IC50): -0.07

###

system: N1E115 (mouse brain neuroblastoma cell line); test: Cell proliferation (ATPLite) on N1E115 line; format: cell-based; conditions: 50% inhibition of cell proliferation, read 72 hours after addition, read-out: IC50 (μM) N1E-115
measurement.label: log10 of IC50 (log10 of the value in µM)

- compound: "COc1cc(OC)c2c(c1Cl)O[C@]1(C2=O)C2=C(C[C@@](CCO)(c3ccccc3)O2)C(=O)C[C@H]1C [compound 46]"
  system.under.test: "N1E115 (mouse brain neuroblastoma cell line)"
  log10 of IC50: -0.66
- compound: "COc1cc(OC)c2c(c1Cl)O[C@]1(C2=O)C2=C(C[C@H](c3ccccc3)O2)C(=O)C[C@H]1C [compound 3]"
  system.under.test: "N1E115 (mouse brain neuroblastoma cell line)"
  log10 of IC50: -0.68
- compound: "COc1cc(OC)c2c(c1Cl)O[C@@]1(C=C([S+]([O-])c3ccccc3)C(=O)C[C@H]1C)C2=O (stereo partly drawn) [compound 95]"
  system.under.test: "N1E115 (mouse brain neuroblastoma cell line)"
  log10 of IC50: 0.00
- compound: "COc1cc(OC)c2c(c1Cl)O[C@]1(C2=O)C2=C(C[C@@H](c3ccccc3)O2)/C(=N/O)C[C@H]1C [compound 217]"
  system.under.test: "N1E115 (mouse brain neuroblastoma cell line)"
  log10 of IC50: -0.14
- compound: "COc1cc(OC)c2c(c1Cl)O[C@]1(C2=O)C(S(=O)(=O)Cc2ccccc2)=CC(=O)C[C@H]1C [compound 145]"
  system.under.test: "N1E115 (mouse brain neuroblastoma cell line)"
  log10 of IC50: 0.48
- compound: "COc1cc(OC)c2c(c1Cl)O[C@]1(C2=O)C2=C(C[C@](C)(c3ccccc3)O2)C(=O)C[C@H]1C [compound 5]"
  system.under.test: "N1E115 (mouse brain neuroblastoma cell line)"
  log10 of IC50: -0.60

###

As shown below, each of these compounds has a reported IC50 value.
tested on: N1E115 (mouse brain neuroblastoma cell line); test: Cell proliferation (ATPLite) on N1E115 line; type: cell-based; details: Mus musculus, N1E-115, 50% inhibition of cell proliferation, read 72 hours after addition

- compound: "CCc1ccc2c(n1)C[C@@H](C)[C@]1(Oc3c(Cl)c(OC)cc(OC)c3C1=O)C2O (some centres unmarked)"
  IC50 (µM): 1.4
- compound: "COC(=O)c1cc(-c2ccccc2)c2c(n1)C[C@@H](C)[C@]1(Oc3c(Cl)c(OC)cc(OC)c3C1=O)[C@H]2O"
  IC50 (µM): 0.2
- compound: "COC(=O)c1cc(-c2ccccc2)c2c(n1)C[C@@H](C)[C@]1(Oc3c(Cl)c(OC)cc(OC)c3C1=O)C2=O"
  IC50 (µM): 0.62
- compound: "COC(=O)C1=C[C@H](c2ccccc2)C2=C(C[C@@H](C)[C@]3(Oc4c(Cl)c(OC)cc(OC)c4C3=O)C2=O)N1"
  IC50 (µM): 0.21
- compound: "COc1cc(OC)c2c(c1Cl)O[C@]1(C2=O)C(O)c2ccc(C)nc2C[C@H]1C (some centres unmarked)"
  IC50 (µM): 0.26

###

tested on: MDA-MB-231 line (mammary adenocarcinoma cell line); test: Cell proliferation (ATPLite) on MDA-MB-231 line; type: cell-based; settings: 50% inhibition of cell proliferation, read 72 hours after addition

- molecule: "COc1cc(OC)c2c(c1Cl)O[C@]1(C2=O)C2=C(C[C@H](c3ccccc3)O2)C(=O)C[C@H]1C"
  result.unit: "µM"
  IC50: 0.45
- molecule: "COc1cc(OC)c2c(c1Cl)O[C@]1(C2=O)C2=C(C[C@H](c3ccc(F)cc3)O2)C(=O)C[C@H]1C"
  result.unit: "µM"
  IC50: 0.18
- molecule: "COc1cc(OC)c2c(c1Cl)O[C@]1(C2=O)C(S(=O)(=O)Cc2ccccc2)=CC(=O)C[C@H]1C"
  result.unit: "µM"
  IC50: 2
- molecule: "COc1cc(OC)c2c(c1Cl)O[C@]1(C2=O)C2=C(C[C@@H](c3ccc(F)cc3)O2)C(=O)C[C@H]1C"
  result.unit: "µM"
  IC50: 0.25
- molecule: "COc1cc(OC)c2c(c1Cl)O[C@]1(C2=O)C2=C(C[C@H](c3ccccc3F)O2)C(=O)C[C@H]1C"
  result.unit: "µM"
  IC50: 0.27
- molecule: "COc1cc(OC)c2c(c1Cl)O[C@]1(C2=O)C2=C(C[C@](CCCCO)(c3ccccc3)O2)C(=O)C[C@H]1C"
  result.unit: "µM"
  IC50: 0.46
- molecule: "COc1cc(OC)c2c(c1Cl)O[C@]1(C2=O)C2=C(C[C@@H](c3ccccc3)O2)/C(=N/O)C[C@H]1C"
  result.unit: "µM"
  IC50: 0.63
- molecule: "COc1cc(OC)c2c(c1Cl)O[C@@]1(C=C([S+]([O-])c3ccccc3)C(=O)C[C@H]1C)C2=O (stereo partly drawn)"
  result.unit: "µM"
  IC50: 0.54
- molecule: "COc1cc(OC)c2c(c1Cl)O[C@]1(C2=O)C2=C(C[C@](C)(c3ccccc3)O2)C(=O)C[C@H]1C"
  result.unit: "µM"
  IC50: 0.86

Cited source for all entries: patent US9416143B2
